# protocol_text: soluble on expression in E. coli; label from the status in PepcDB or PDB records
test_readout: soluble on expression in E. coli

Examples from the recorded data:
biosequence | soluble on expression in E. coli
MGLGRQSLNIMTFSGQELTAIIKMAKSMVMADGKIKPAEIAVMTREFMRFGILQDQVDLLLKASDSIEASQAVALIARMDEERKKYVASYLGVIMASDGDIDDNELALWTLISTLCGLPTMTVMEAINNMKNL | soluble
TVSQLRSRITRFALAGRGMRETVTWSFISEKQALAFGGGQAQLKLVNPISADMSVMRPSLLPGLLVAAQRNADRGFPDFALFEVSNIYEDDTPDKQHRVAGGIRRGTEQFGGAGRFWNGNARAVDVFDAKADALAVLEACGLESGKVQIEVGAPDWYHPGRSGVIKLGSKIILGFFGVFHPATLEKLDISGPLCGFEIFL | not soluble
MGSDKIHHHHHHMDRLQLLEYWLKALYPDQPCTLSPASADASFRRYFRASLPGKTLIVMDAPPQQEDCRPFLHAASIFSRASVHVPAIVAQDLNQGFLLLSDLGTTTYLQALTAAPENANRLYQDAIDALIKIQCASQKNIFPEYDRILLSRELELFPDWYMTRHLHAPPDDDQKNTLKTVFNLILANNLAQPQVFVHRDYHSRNLMVSTPNPGIIDFQDAVLGPITYDLVSLFKDAYIQWEEAQILDWMIRYWEKARHAGLPVATDFSIFYRDFEWMGVQRHLKVLGIFARLCYRDNKPTYLQDMPAIMQYLRQTCERYSELHPLSRLLDRLEDRQAETGYTF | not soluble
MGSDKIHHHHHHMLTRLELAKDWVRDAGNFLKENIAAPLEITEKTRYDDLVTNFDKEVQEQIVANILHHFPEDKILAEEDEEKIKFDSEIPHLWVLDPIDGTTNFIVQKDNFAVMLAYYEYGVGKFGLILDVMKDKLYWCDSHKAFCNQKELELKERPLAQSLLGVNSYMYRSNSGGLLDLSHQTLGVRIIGSAGISYGQLLEGKIIGYFSSLQPWDYAAGSIIAERIGYVTLTISGESPHFNCRERVFTAPSYLISEIQKYIKK | not soluble
MCINIRLEKTRDIQSIHAITIAAFLDAPHTDHTEQFIVDALRDSGALSVSLIAEDSSKIIGHVALSPVTISDGSKDWYGLGPISVVPTDQNKGIGSKLMHAALRELNNLNANGCVLLGDPNYYRRFGFEPIGGLVLPDVPPEYFQATLLKGSYPTGVVTYHESFSAQS | not soluble
MGAAKPIFVEHSIVIDRPAQQVYDYWRKLENLPQIMSHLESVTVLDDKRSRWVAKAPLGTHVEWEAEVVNDKPGERIGWHSLPGATVDNAGSVQFESLPDDKTRVHVALSYRPPAGPLGAAVAKLFGEEPSQQIAEDLQKFKATFEGLEHHHHHH | not soluble
MSLAISQEQKQAIDQALTERLLHHPFYQEAKVIATYLSFSHEFQTRELIEQALKDGKKVLIPKTYPKGRMEFVAYDPQQLVKTSFALLEPQGDVEVVDASQIDLIHVPGLAFTTKGYRIGYGGGYYDRYLEHFSGRTLSTIYPCQIQDFIPENHDIPVQEVLIDEGNLEGHHHHHH | soluble
TQKPSLYRVLILNDDYTPMEFVVYVLERFFNKSREDATRIMLHVHQNGVGVCGVYTYEVAETKVAQVIDSARRHQHPLQCTMEKD | soluble
MNCWMRSPRWPPTTDGSNSSQWVTPCSQMDRSVFSPTPSVPMKLFSTRTLSGTGWAVCKPVGATGVVKGLQRVRLAGLRPAHREDIAIHELVFQRDDDGAIAVCTRRLRLVERLLAKRTDEHRHTGWMGVGHIHRWGAVNECSLAIRMRWLRAPDYVYNTPRCAQLLTSESTKPNGTHGHTMTTFLLATSSVHVTAAAADYLQHRLDSAADHDIVVVAVHDPDAPSRDAGDAVNVARSRLAAFMPATETRDGAPVTEILAAVDEHDPDELLIGPHRGTDDSDGVGSMARDLLTNVDRPVIVLPLP | not soluble
MGQIQYSEKYFDDTFEYRHVVLPPEVAKLLPKNRLLSENEWRAIGVQQSRGWVHYAVHRPEPHIMLFRRPLNYQQQQENQAQNMLVK | soluble

May I ask what soluble on expression in E. coli has been recorded for `MFGIDGLEFLVILLVLIVVVGPKDLPKMLKTMARAIAYVRSTANEFRHQFDDAIKQAELDDLQKTLSDMNDFNPDKKLTGILNPMQDIRGDILNNFDVNTTHHKLEKDQENFECNENKTNEDLDVPVDAHSSGSVFVTSKDKESAS` ?
not soluble

Likewise for `MGKILVLSDIHYPYCDIDEINKIMLSERPSLTVLLGDIIVSKSEDYRNFIDKLKIRKNIIYVKGDEDKFRGDFDLIKIKNNGKRFILLHGHQYFNENNEYSLAKVLKKMNDNIPPLLFCIFFRIMLRNFKDTIILGHSHAL` ?
soluble

Lookup `MGSDKIHHHHHHMRVGLTLYGSLDEQSGGFRYDRKLVEGLRAAGDTVECIQLPWRDYHRGLLDNGSRKLRQRLDVDVDVMLQDELAHPSLVRTNRALSYPIVSIVHHLRASEPRRLAPLYRAVERRYLGTVQAVVCNSATTRNVVTNLGVDPEDTVVAPPAGDQFDPDIDRATIERRATTEPLQVVFVGNVSPRKGLDTLVDGVAAAAVDIDLTVVGRHVDAAHVTSVQERVREHDLADRVQFAGRLPDGELAKTLRSSHVLAVPSRYEGFGIVYLEGMSFGLPALATRAGGAADIVTDDETGVLVDPDDSAAVARELERFATDRDRLAEMGWAARRNYETHPDWEETVGRVRDLLSDIVQPTEVPA`
not soluble

Can you handle `MGQFYCLHCDRYFSNVSVRDDHFKTKKHKKRVNMMMGQAPHSQLDADLAGGMGMPDNGPKLMSNLVFTELRKPETEDLPGMGQFNCLLCHRNFSNASVMDYHFKTKKHKKRVKKIERPAPHSQLDADLAGGMGMPDNGPKLMSA` next?
not soluble
